- Test system: Cell line
- procedure.summary: Percentage of alpha-MSH stimulated cAMP level at 10 uM
- Type: functional, Homo sapiens
value.kind: IA (%)
The reply should contain only the number, in %.

CC(NCCNc1cccc2ccccc12)c1ccccc1N1CCN(C(=O)[C@@H](Cc2ccc(Cl)cc2)NC(=O)CCN)CC1 (stereo not given in full)	22

Turning now to a further record.
Look up IA for this compound: O=C(N[C@H](Cc1ccc(Cl)cc1)C(=O)N1CCN(c2ccccc2CNCCc2cccs2)CC1)C1CCNCC1
39

---

Measured Ki (UniProt P33032)
Sequence (P33032 whole entry): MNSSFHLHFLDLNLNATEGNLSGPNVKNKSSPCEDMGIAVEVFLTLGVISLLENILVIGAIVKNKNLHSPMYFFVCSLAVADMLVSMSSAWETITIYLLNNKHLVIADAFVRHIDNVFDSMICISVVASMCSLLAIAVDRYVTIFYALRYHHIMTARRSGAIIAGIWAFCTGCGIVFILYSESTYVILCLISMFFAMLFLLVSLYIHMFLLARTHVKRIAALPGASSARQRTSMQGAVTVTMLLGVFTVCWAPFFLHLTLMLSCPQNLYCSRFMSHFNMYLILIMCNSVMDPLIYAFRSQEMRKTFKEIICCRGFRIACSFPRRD
The reply should contain only the number, in µM.

NCCC(=O)N[C@H](Cc1ccc(Cl)cc1)C(=O)N1CCN(c2ccccc2CNCCc2cccs2)CC1	1

Turning now to a further record.
Look up Ki for this molecule: O=C(N[C@H](Cc1ccc(Cl)cc1)C(=O)N1CCN(c2ccccc2CNCCc2cccs2)CC1)C1CCCNC1 (some centres not stated)
0.72
